system: Fibroblast; assay: Multiplex assay against human fibroblast; type: toxicity, cell-based; details: 48 h, 10 µM, compound concentration 10 uM, replicate 1
TEST_READOUT: Population Pyknosed Nuclei (%)
Provide the reading as a plain figure in %.

[[record]]
molecule = "O=C(O)CCC/C=C\\CC1C(O)CC(O)C1/C=C/C(O)COc1cccc(Cl)c1 (centres undefined) [CLOPROSTENOL]"
target_desc = "Fibroblast"
result = 16


Prompt: Please supply the value of reported Population Pyknosed Nuclei (%) for the item "Nc1nc(-c2ccco2)c2cnn(Cc3ccccc3F)c2n1"
Response: 9

Prompt: Please supply the value of reported Population Pyknosed Nuclei (%) for the item Cl.Cl.OCCOCCN1CCN(C(c2ccccc2)c2ccc(Cl)cc2)CC1 (centres undefined) [HYDROXYZINE HYDROCHLORIDE]
Response: 8

Prompt: Please supply the value of reported Population Pyknosed Nuclei (%) for the item "CN1CCC(C(=O)c2cccc(NC(=O)c3c(F)cc(F)cc3F)n2)CC1"
Response: 10

Prompt: Please supply the value of reported Population Pyknosed Nuclei (%) for the item "CC(F)(F)CN1CCOc2c(nn(-c3ccccc3Cl)c2-c2ccc(Cl)cc2)C1=O"
Response: 11

Prompt: Please supply the value of reported Population Pyknosed Nuclei (%) for the item CN(C)C/C=C/C(=O)Nc1ccc(C(=O)N2CCCC(Nc3ncc(Cl)c(-c4c[nH]c5ccccc45)n3)C2)cc1 (centres undefined)
Response: 51

Prompt: Please supply the value of reported Population Pyknosed Nuclei (%) for the item "COCCn1c(C)c(C)s/c1=N\C(=O)C1C(C)(C)C1(C)C"
Response: 20

Prompt: Please supply the value of reported Population Pyknosed Nuclei (%) for the item "OCCCNc1cc(-c2ccnc(Nc3cccc(Cl)c3)n2)ccn1"
Response: 21

Prompt: Please supply the value of reported Population Pyknosed Nuclei (%) for the item "Cn1cc(C(=O)OCC2CCN(CCNS(C)(=O)=O)CC2)c2ccccc21"
Response: 13
